# system: T1, SARS-CoV-2 Spike RBD N501Y (SARS-CoV-2, UniProt P0DTC2 319-541)
# T1 construct: domain: RBD
# assay_explanation: HTRF, soluble RBD construct
Assignment: determine reported fold over background for the given binders.
Numbers only, in fold over background.

PR200_00622 (antibody, V domains shown, also called IMM20253; PR200_00253) VH: QVQLVESGGGVVQPGRSLRLSCTASGFTFSTYGMHWVRQAPGKGLEWVAVISYDGSSKHYAESVKGRFTISRDNSNNTLYLQMNRLRAEDTAVYYCARDGQPPGWGNYFDYWGQGTLVTVAS VL: SYVLTQPPSVSVAPGKTARITCGGNGIGSKSVYWYQQKPGQAPEVVVYDDSDRPSGIPERFSGSNSGNTATLTISRVEAGDEADYYCQVWDSSSDPWVFGGGTKLTVL; 5.11
PR197_00647 (antibody, V domains shown) VH: QVQLVESGGGVVQPGRSLRLSCAASGFTFSSYAMHWVRQAPGKGLQWVTLISYDGGDKYYADSVRGRFTISRDNSKNTLYLQMNSLRTEDTAVYYCARDRPQTGDWFPPIPTGVLDVWGQGTTVTVSS VL: DIQMTQSPSSLSASVGDRVTITCRASQGISNYLAWFQQKPGKAPKSLIYAASSLQSGVPSRFSGSESGTDFTLTISSLQPEDFATYYCQQYHSYPITFGQGTRLEIK; 1.06

Turning now to a further binder:
// lookup fold over background for PR193_00018 (antibody, V domains shown, also called IMM20184; IMM200184) VH: EVQLVESGGGLVQPGGSLRLSCSASGFTFSSFWMSWVRQAPGKGLEWVATIREDGSEKYYVDSVKGRFSISRDNAKNSLYLQMNSLRAEDTAVYYCARSKWLRGSFDYWGQGTLVTVSS VL: NFMLTQPHSVSESPGKTVTISCTRRSGSIASNYVQWYQQRPGSAPTTVIYEDNQRPSGVPDRFSGSIDSSSNSASLTISGLQTEDEADYYCQSYDSSNPPGASWVFGGGTKLTVL 4.92
